These measurements were taken from patent US7511145B2.

Would you mind telling me the reported inhibition at 33 µM of each entry?
# target.or.test.system: HCV-NS5b (Hepatitis C virus genotype 1b, UniProt Q9WMX2)
# Construct: (His)6 (C); made in house; host or cells: XL-1 cells (E. coli), IPTG-inducible plasmid, nickel-NTA purification
# assay.details: HCV-NS5b enzyme assay (incorporation of radiolabeled UTP)
# Format: biochemical
# condition.details: enzyme inhibition at compound concentration of 33 uM
One number for each entry, in %.

- O=C(O)COc1ccc(-c2ccc(Cl)cc2)c(-c2ccc3cc(-c4nc5cc(C(=O)O)ccc5n4C4CCCCC4)ccc3n2)c1: 97.6

For every listed record, write down its inhibition at 33 µM.
1. Cc1cc(-c2nc3cc(C(=O)O)ccc3n2C2CCCCC2)cc2ccc(-c3ccccc3-c3ccccc3)nc12
2. CC(NC(=O)c1ccc2cc(-c3nc4cc(C(=O)O)ccc4n3C3CCCCC3)ccc2n1)C(N)=O (centres unmarked)

**Result**
[93.3, 65.5]

For every listed record, write down its inhibition at 33 µM.
1. COc1ccc(-c2cccc(C)c2)c(-c2ccc3cc(-c4nc5cc(C(=O)O)ccc5n4C4CCCCC4)ccc3n2)c1
2. O=C(O)[C@@H]1CCCN1C(=O)c1ccc2c(c1)nc(-c1ccc3nc(-c4ccccc4)ccc3c1)n2C1CCCCC1
3. O=C(N[C@H](C(=O)O)C1CCCCC1)c1ccc2c(c1)nc(-c1ccc3nc(-c4ccccc4)cnc3c1)n2C1CCCCC1
4. O=C(O)c1ccc2c(c1)nc(-c1ccc3nc(-c4ccccc4)cc(Oc4ccccc4)c3c1)n2C1CCCCC1
5. O=C(O)c1cnc2c(c1)nc(-c1ccc3nc(-c4cc(C(=O)N5CCCC5)ccc4-c4ccc(Cl)cc4)ccc3c1)n2C1CCCCC1
6. Cc1oc(-c2ccc(Cl)cc2)cc1-c1ccc2cc(-c3nc4cc(C(=O)O)ccc4n3C3CCCCC3)ccc2n1

**Result**
1: 103; 2: 50; 3: 96; 4: 101; 5: 104; 6: 99.7

For every listed record, write down its inhibition at 33 µM.
1. O=C(O)c1ccc2c(c1)nc(-c1ccc3nc(-c4ccccc4)c(-c4ccccc4)cc3c1)n2C1CCCCC1
2. O=C(O)CC[C@H](NC(=O)c1ccc2c(c1)nc(-c1ccc3nc(-c4ccccc4)cnc3c1)n2C1CCCCC1)C(=O)O
3. COc1ccc(-c2ccc(Cl)cc2)c(-c2ccc3cc(-c4nc5cc(-c6nnn[nH]6)ccc5n4C4CCCCC4)ccc3n2)c1
4. O=C(O)c1ccc2c(c1)nc(-c1ccc3nc(-c4cc(-c5ccc(Cl)c(Cl)c5)no4)ccc3c1)n2C1CCCCC1
5. Cc1ccc2cc(-c3nc4cc(C(=O)N[C@@H](Cc5c[nH]c6ccc(O)cc56)C(=O)O)ccc4n3C3CCCCC3)ccc2n1

**Result**
1: 100; 2: 73.2; 3: 101; 4: 99.6; 5: 92.7

###

# target.or.test.system: HCV-NS5b (Hepatitis C virus genotype 1b)
# Construct: (His)6 (C); made in house; host or cells: XL-1 cells (E. coli), IPTG-inducible plasmid, nickel-NTA purification
# assay.details: HCV-NS5b enzyme assay (incorporation of radiolabeled UTP)
# Format: biochemical
# condition.details: read-out: % inh@100, enzyme inhibition at compound concentration of 100 uM
metric: inhibition at 100 µM (%)
Answers are plain numbers, in %.

• O=C(O)c1ccc2c(c1)nc(-c1ccc3nc(-c4cc(C(=O)N5CCCC5)ccc4-c4ccc([N+](=O)[O-])cc4)ccc3c1)n2C1CCCCC1 = 101
• COc1ccc(-c2ccc(Cl)cc2)c(-c2ccc3cc(-c4[nH]c5cc(C(=O)O)ccc5c4C4CCCCC4)ccc3n2)c1 = 98.9

For every listed record, write down its inhibition at 100 µM.
1. Nc1ccc(-c2ccc3cc(-c4nc5cc(C(=O)O)ccc5n4C4CCCCC4)ccc3n2)cc1Br
2. c1ccc(-c2cnc3cc(-c4nc5cc(-c6nn[nH]n6)ccc5n4C4CCCCC4)ccc3n2)cc1
3. COc1ccc(-c2ccc(Cl)cc2)c(-c2ccc3cc(-c4nc5cc(C(=O)O)ccc5n4C(C)C)ccc3n2)c1
4. CCc1ccc(-c2ccc(OC)cc2-c2ccc3cc(-c4nc5cc(C(=O)O)ccc5n4C4CCCCC4)ccc3n2)cc1
5. COc1ccc(-c2ccc(C(=O)N3CCCC3)cc2-c2ccc3cc(-c4nc5cc(C(=O)O)ccc5n4C4CCCCC4)ccc3n2)cc1OC

**Result**
98.2
98
101
101
101

###

Would you mind telling me the reported inhibition at 100 µM of each entry?
# target.or.test.system: HCV-NS5b (Hepatitis C virus genotype 1b, UniProt Q9WMX2)
# Construct: (His)6 (C); made in house; host or cells: XL-1 cells (E. coli), IPTG-inducible plasmid, nickel-NTA purification
# assay.details: HCV-NS5b enzyme assay (incorporation of radiolabeled UTP)
# Format: biochemical
# condition.details: read-out: % inh@100, enzyme inhibition at compound concentration of 100 uM
Answers are plain numbers, in %.

- O=C(O)c1ccc2c(c1)nc(-c1ccc3nc(CCn4cccn4)ccc3c1)n2C1CCCCC1 [Compound 476]: 97.1

For every listed record, write down its inhibition at 100 µM.
1. COc1ccc(-c2ccc(OC)cc2-c2ccc3cc(-c4nc5cc(C(=O)O)ccc5n4C4CCCCC4)ccc3n2)cc1 [Compound 468]
2. COc1ccc(-c2ccc(Cl)cc2)c(-c2ccc3cc(-c4nc5cc(C(=O)O)ccc5n4CCC(C)C)ccc3n2)c1 [Compound 532]
3. O=C(O)c1ccc2c(c1)nc(-c1ccc3nc(-c4cc(OCCCN5CCCC5)ccc4-c4ccccc4)ccc3c1)n2C1CCCCC1 [Compound 430]
4. NCCCC[C@H](NC(=O)c1ccc2c(c1)nc(-c1ccc3nc(-c4ccccc4)ccc3c1)n2C1CCCCC1)C(=O)O [Compound 232]
5. O=C(O)c1ccc2c(c1)nc(-c1ccc3nc(-c4cc5c(cc4-c4ccc(Cl)cc4)OCCCO5)ccc3c1)n2C1CCCCC1 [Compound 565]
6. COc1cccc(-c2ccc3cc(-c4nc5cc(C(=O)O)ccc5n4C4CCCCC4)ccc3n2)c1 [Compound 486]

**Result**
1. 99.1
2. 98.8
3. 96.7
4. 80.2
5. 100
6. 97.9

###

# target.or.test.system: HCV-NS5b (Hepatitis C virus genotype 1b, UniProt Q9WMX2)
# Construct: (His)6 (C); made in house; host or cells: XL-1 cells (E. coli), IPTG-inducible plasmid, nickel-NTA purification
# assay.details: HCV-NS5b enzyme assay (incorporation of radiolabeled UTP)
# Format: biochemical
# condition.details: read-out: % inh@100, enzyme inhibition at compound concentration of 100 uM
metric: inhibition at 100 µM (%)
Answers are plain numbers, in %.

Example entries begin here.
• COCCOc1ccc(-c2ccccc2)c(-c2ccc3cc(-c4nc5cc(C(=O)O)ccc5n4C4CCCCC4)ccc3n2)c1 = 96.7
• O=C(O)c1ccc(-c2ccc(Cl)cc2)c(-c2ccc3cc(-c4nc5cc(C(=O)O)ccc5n4C4CCCCC4)ccc3n2)c1 = 102
• O=C(O)c1ccc2c(c1)nc(-c1ccc3nc(-c4ccc5c(c4)CCO5)ccc3c1)n2C1CCCCC1 = 97.2
• O=C(O)c1ccc2c(c1)nc(-c1ccc3c(c1)CCC(c1ccccc1)N3)n2C1CCCCC1 (stereo not shown) = 101
• O=C(O)c1ccc2c(c1)nc(-c1ccc3nc(-c4cc(C(=O)N5CCCC5)ccc4-c4ccc(Cl)cc4)ccc3c1)n2C1CCCCC1 = 101

For every listed record, write down its inhibition at 100 µM.
1. COc1cc(Br)c2oc(-c3ccc4cc(-c5nc6cc(C(=O)O)ccc6n5C5CCCCC5)ccc4n3)cc2c1
2. O=C(O)c1ccc2c(c1)nc(-c1ccc3nc(-c4ccc(Oc5ccc(Cl)cc5)cc4Cl)ccc3c1)n2C1CCCCC1

**Result**
1: 100; 2: 100

###

# target.or.test.system: HCV-NS5b (Hepatitis C virus genotype 1b, UniProt Q9WMX2)
# Construct: (His)6 (C); made in house; host or cells: XL-1 cells (E. coli), IPTG-inducible plasmid, nickel-NTA purification
# assay.details: HCV-NS5b enzyme assay (incorporation of radiolabeled UTP)
# Format: biochemical
# condition.details: enzyme inhibition at compound concentration of 33 uM
metric: inhibition at 33 µM (%)
Answers are plain numbers, in %.

• NC(=O)CNC(=O)c1ccc(-c2ccc(Cl)cc2)c(-c2ccc3cc(-c4nc5cc(C(=O)O)ccc5n4C4CCCCC4)ccc3n2)c1 = 100
• O=C(O)C[C@H](NC(=O)c1ccc2c(c1)nc(-c1ccc3nc(-c4ccccc4)cnc3c1)n2C1CCCCC1)C(=O)O = 75.7
• CCCN(CCC)Cc1ccc2cc(-c3nc4cc(C(=O)O)ccc4n3C3CCCCC3)ccc2n1 = 87
• CN(C(=O)c1ccc2cc(-c3nc4cc(C(=O)O)ccc4n3C3CCCCC3)ccc2n1)c1ccc(Cl)cc1 = 95.3
• O=C(O)c1ccc2c(c1)nc(-c1ccc3nc(-c4cc(OCCCN5CCCC5)ccc4-c4ccc(Cl)cc4)ccc3c1)n2C1CCCCC1 = 97.8

For every listed record, write down its inhibition at 33 µM.
1. O=C(O)c1ccc2c(c1)nc(-c1ccc3nc(-c4ccccc4)cc(Nc4ccccc4)c3c1)n2C1CCCCC1
2. O=C(O)c1ccc2c(c1)nc(-c1ccc3nc(-c4cc(OCC(=O)N5CCCC5)ccc4-c4ccccc4)ccc3c1)n2C1CCCCC1
3. O=C(O)c1ccc2c(c1)nc(-c1ccc3nc(-c4cnn(-c5ccccc5)c4)ccc3c1)n2C1CCCCC1
4. O=C(O)c1ccc2c(c1)nc(-c1ccc3nc(-c4cn(-c5cccnc5Cl)c(=O)[nH]c4=O)ccc3c1)n2C1CCCCC1
5. O=C(O)c1ccc2c(c1)nc(-c1ccc3nc(-c4ccc5c(c4)CCO5)ccc3c1)n2C1CCCCC1
6. O=C(O)CC[C@H](NC(=O)c1ccc2c(c1)nc(-c1ccc3nc(-c4ccccc4)ccc3c1)n2C1CCCCC1)C(=O)O

**Result**
[92.5, 97.6, 99.8, 95.3, 95.8, 79.7]
